This section presents sequences with their documented folding stability dG unfold values.
ASSAY_PROCEDURE: folding stability dG unfold (combined trypsin and chymotrypsin); higher = more stable

Recorded folding stability dG unfold, per entry:
| RESIDUE_CODES | RECORDED_VALUE |
| --- | --- |
| SSLDDLSPEQAVDQAKFMVRMIRESRDNGKPEQYPKMINMLRRMASSAPPPDRKAVKEVLEEFKIPPEWFSA [r9_182_TrROS] | < -1 kcal/mol |
| SAGGSAGGSAGGTIKKVSDGTIVIPVPNPHQAEKFADTLMEKNNGRDVKIKVFPPEDFGPSAGGSAGGSAGG [r7_645_TrROS] | < -1 kcal/mol |

Inquiry: Given the entry SAGGSAGGSGSMNISPNVKKFTIKSTGTEEKAKEEAEKIKNSLPKNVPIEITFEPLDPKEFKKSAGGSAGGS [r12_744_JUSTAS] , report its measured folding stability dG unfold.
Reply text: < -1 kcal/mol

---

ASSAY_PROCEDURE: folding stability dG unfold from chymotrypsin proteolysis; higher = more stable
This section presents sequences with their documented folding stability dG unfold values.
The reply should read as a number followed by its unit.

Inquiry: Given the entry SAGGSAGGSAGTAEEIAKALEEAGFKVEKLPDGTLKVTVRNPETEETVEITLTLEEIEKLSAGGSAGGSAGG [r11_994_TrROS_Hall] , report its measured folding stability dG unfold.
Reply text: 2.22 kcal/mol

Inquiry: Given the entry PNMKMEWIQIPPGDLNDPVKIEAPLPPGTQIMIWVHDNGNGEWRPIFTVNNDEITIKNLPDADHVWVWVIKS [r1_224_TrROS] , report its measured folding stability dG unfold.
Reply text: 2.71 kcal/mol

Inquiry: Given the entry SAGGSAGGSAGGSKTYRIYFKDNNKVITVKSKEDLKAALEKAGYTISEEDLDKIVKIEPSAGGSAGGSAGGS [r4_104_TrROS_Hall] , report its measured folding stability dG unfold.
Reply text: 1.81 kcal/mol

---

ASSAY_PROCEDURE: folding stability dG unfold from chymotrypsin proteolysis; higher = more stable
REPORTED_ENDPOINT: folding stability dG unfold (kcal/mol)
Please respond with the number in kcal/mol and leave the unit unwritten.

| RESIDUE_CODES | folding stability dG unfold (kcal/mol) |
| --- | --- |
| SMKPGETVRVTFKTKDGSKIEIEFKNGKPVRITVYNKNGEKVKEIEVTLDELKELAEKLGIEEIVEVEKVSA [r9_1107_TrROS_Hall] | 3.44 |
| SAGGSAGGSAGGPLKVEVIGSIEGDDRVYVLTRVPGVGGLFVAEYEKPSGKILSVSPVPLSAGGSAGGSAGG [r7_154_TrMRF] | 1.3 |
| SAGGMTPEELREKAKKLAEELAKKLKEKYPNVKVEVEVDEETKKVKIKVKNKKTGKTYEITINLEELLSAGG [r13_354_TrROS_Hall] | 3.94 |
| SAMIVVEIEESRSPTSPERTVTVTVKKPDGTVVKTIPITVSGANPSATPEEVRALAEPIVEELVKKGLLSAG [r14_120_JUSTAS] | 1.47 |

Inquiry: Given the entry SMPLLVKVDTPEQREKLLKVLEEIEKETDIKIELVSEHPDGKYEFLIEAPLEEAVKIAKKLKEAGNVEIVSA [r9_472_TrMRF] , report its measured folding stability dG unfold.
Reply text: 3.48

Inquiry: Given the entry SAGGTIYIWFPMKVDEAVDLAKELAENKDWKIEIYNGGKEHEIELDKIEPVPPENVRVYIEIEPKPDSAGGS [r16_628_TrROS] , report its measured folding stability dG unfold.
Reply text: 1.64

Inquiry: Given the entry SAGGSARRPFNVEAWYPPGRSADNVADELASHFFGIKIDDVEVEPNPDNGYYKIEATIRIPPDWLKSAGGSA [r15_930_TrROS] , report its measured folding stability dG unfold.
Reply text: 0.528

Inquiry: Given the entry SAGGSAPKIRVEIEIDPDNGTIKLEVQHDGKPVFEMTMRIDPNGKIKEMKFTFYVDPDNGKLEIMMSAGGSA [r15_770_TrROS] , report its measured folding stability dG unfold.
Reply text: 4.59

Inquiry: Given the entry SAGPPGMRMVPFTIELPGKKIEIHVMEYPNGPPQYMVEIEDPNGKPKWTIMVTGPEARDLLEKAGIKFSAGG [r19_90_TrROS] , report its measured folding stability dG unfold.
Reply text: 1.23

Inquiry: Given the entry SAGGSAMKVRLEVEEEDGKLRVRLEVEVGPPVVRVEVEAEVEEVDGELVLKVTVKVELSPEALEALSAGGSA [r15_725_TrROS_Hall] , report its measured folding stability dG unfold.
Reply text: 3.78
